- TARGET_DESC: OGA (Homo sapiens, UniProt O60502)
- Construct: HEK293 cells inducible for P301L mutant human Tau (isoform 2N4R) were established at Janssen; endogenous in cells; host or cells: HEK293 cells inducible for P301L mutant human Tau (2N4R)
- TEST_PROTOCOL: OGA cellular assay (ICC detection of O-GlcNAcylated proteins in HEK293 cells inducible for P301L mutant human Tau)
- Format: cell-based
- EXPERIMENTAL_PARAMETERS: HEK293 cells inducible for P301L mutant human Tau, 6 hours incubation; read-out: Cellular hOGA; pEC50 (converted)

- COMPOUND: "Cc1cc(C2CCCN(C(C)c3ccc4sc(C)nc4n3)C2)cc(C)n1 (racemic)"
  UNIT_ABBREVIATION: "µM"
  MODIFIER: "="
  EC50: 0.0631
- COMPOUND: "Cc1cc(C[C@H]2CCCN(C(C)c3ccc4oc(C)nc4n3)C2)cc(C)n1 (mixture of isomers)"
  UNIT_ABBREVIATION: "µM"
  MODIFIER: "="
  EC50: 0.0126
- COMPOUND: "COc1cc(CN[C@H]2CCCN(C(C)c3ccc4sc(C)nc4n3)C2)cc(C)n1 (some centres unmarked)"
  UNIT_ABBREVIATION: "µM"
  MODIFIER: "="
  EC50: 0.794
- COMPOUND: "Cc1cc(CO[C@H]2CCCN(C(C)c3ccc4sc(C)nc4n3)C2)cc(C)n1 (single isomer, unassigned) [Compound 67]"
  UNIT_ABBREVIATION: "µM"
  MODIFIER: ">"
  EC50: 1
- COMPOUND: "Cc1cc(C[C@@H]2CCN(C(C)c3ccc4sc(C)nc4n3)C2)nc(C)n1 (single isomer, unassigned)"
  UNIT_ABBREVIATION: "µM"
  MODIFIER: ">"
  EC50: 1
